# Target Entity: human GLP-1 receptor (human, UniProt P43220 24-463)
# Assay Overview: cell-based or functional assay
Positions of bridges follow the written chain, without caps; N, C: chain ends. Non-standard residues stand in square brackets, D forms with d. No end group written: not given here. *: point of attachment. Acetyl(2-(4-imidazolyl)) = O=C(Cc1c[nH]cn1)*; Aib = CC(C)(N)C(=O)O
In vitro Activity Compared to Native Peptide (%) vs. GLP-1 reference

Record excerpt, results attached:
What value of measured In vitro Activity Compared to Native Peptide (%) vs. GLP-1 is listed for [Acetyl(2-(4-imidazolyl))]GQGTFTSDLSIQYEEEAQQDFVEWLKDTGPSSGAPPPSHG [triple agonist of SEQ ID NO: 20] ?
< 0.1%

What would you report for [Acetyl(2-(4-imidazolyl))][Aib]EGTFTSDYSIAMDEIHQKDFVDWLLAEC (bridge 16-20) [triple agonist of SEQ ID NO: 84] ?
4.2%

Next binder: Y[Aib]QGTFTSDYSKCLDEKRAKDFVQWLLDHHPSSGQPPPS (bridge 16-20) [triple agonist of SEQ ID NO: 70]
15.1%

Would you kindly repeat that for [Acetyl(2-(4-imidazolyl))][Aib]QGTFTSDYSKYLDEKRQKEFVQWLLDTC (bridge 16-20) [triple agonist of SEQ ID NO: 82] ?
9.5%

Now consider the entry below.
# input binder: Y[Aib]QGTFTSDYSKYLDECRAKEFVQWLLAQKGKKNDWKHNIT (bridge 16-20) [triple agonist of SEQ ID NO: 23] ; wanted: its In vitro Activity Compared to Native Peptide (%) vs. GLP-1
4.01%
